IC90 values, listed per item
# System: Trypanosoma cruzi
# experiment summary: Antiparasitic activity against Trypanosoma cruzi 320I04 epimastigotes […] after 72 hrs
# Type: functional, organism-based
measured endpoint: IC90 (µM)

- O[C@@H]1Cc2ccc3ccccc3c2N[C@H](c2cccc(Cl)c2)C1: 54.9
- Clc1ccc([C@@H]2C[C@@H]3Cc4ccc5ccccc5c4N2O3)cc1: 105
- O=[N+]([O-])c1ccccc1[C@@H]1C[C@@H]2Cc3ccc4ccccc4c3N1O2: 29.3
- Cc1cccc([C@@H]2C[C@@H]3Cc4ccc5ccccc5c4N2O3)c1: 44.1
- COc1cccc([C@@H]2C[C@H](O)Cc3ccc4ccccc4c3N2)c1: 48.5
- O[C@@H]1Cc2ccc3ccccc3c2N[C@H](c2ccccc2Cl)C1: 11
- Brc1ccc([C@@H]2C[C@@H]3Cc4ccc5ccccc5c4N2O3)cc1: 176
- O[C@@H]1Cc2ccc3ccccc3c2N[C@H](c2ccccc2)C1: 35.1
- O[C@@H]1Cc2ccc3ccccc3c2N[C@H](c2ccc(Br)cc2)C1: 15.9

All values here come from ChEMBL document CHEMBL1154008.
